Just for reference, PubChem BioAssay (NCI) is where these values come from.

- Tested on: UACC-257 melanoma
- TEST PROTOCOL: NCI tumour cell line growth inhibition, 48 h; in the data active means GI50 below about 0.43 µM; inactive means the rest
Response enum: t = active, f = inactive

Returns: the outcome recorded for CCOC(=O)c1nc(Nc2ccc(Cl)cc2)c2ccccc2n1 in this assay. f

Returns: the outcome recorded for COc1ccc2c(c1)C(C)Cc1c(Cl)nc(C)nc1N2C (stereo not drawn) in this assay. f

Returns: the outcome recorded for C=C1CCC2C3(C)COC(c4ccccc4Br)OC3CCC2(C)C1C/C=C1/C(=O)OCC1OC(C)=O (stereo not drawn) in this assay. f

Returns: the outcome recorded for Cn1cc(-c2ccc(-c3cn(C)c4ccc(Cl)cc34)s2)c2cc(Cl)ccc21 in this assay. f

Returns: the outcome recorded for CCCCN(CCCC)c1ccc(C(=NC(C)CCCN(CC)CC)c2ccc(N(C)C)cc2)cc1 (stereo not drawn) in this assay. f

Returns: the outcome recorded for Nc1nc(N)c(N=O)c(OCC2CCCCC2)n1 in this assay. f

Returns: the outcome recorded for Nc1cc(N)c2nc(-c3ccccc3)c(NCc3ccc(F)cc3)nc2c1 in this assay. f

Returns: the outcome recorded for COc1ccc(-c2nn(-c3cccc(Cl)c3)cc2-c2cc(-c3ccccc3)nc(N)n2)cc1 in this assay. f

Returns: the outcome recorded for Nc1ccc(-c2ccc(N)cc2I)c(I)c1 in this assay. f

Returns: the outcome recorded for Cc1ccc2c(c1)C(=O)c1c-2n(CCCBr)c(=O)c2cc([N+](=O)[O-])ccc12 in this assay. f

Returns: the outcome recorded for Cn1ccnc1C(=O)/C=C/c1ccc(CC(=O)Nc2ccc(C(F)(F)F)cc2)cc1 in this assay. f

Returns: the outcome recorded for Nc1c(C(=O)Nc2ccccc2)sc2nc3c(cc12)CN(Cc1ccccc1)CC3 in this assay. f

Returns: the outcome recorded for CC(C)(C#N)c1cc(C(=O)Nc2cc(Nc3ncccc3-c3ncnc4nc[nH]c34)ccc2F)cc(C(F)(F)F)c1 in this assay. t
